# runDescription: CCTE_Simmons_CellTiterGLO_HEK293T: Viability Assessment in CCTE's Assays for Thyroperoxidase (TPO) Inhibition, Simmons Lab (AID 2283665)
Records with an inconclusive call do not appear. Active and inactive are the calls of the source. Rule for the calls: active = hit-call score of the fitted dose curve at least 0.9, where 1 is the maximum; inconclusive = response in the unintended direction; inactive = score below 0.9.
Can you answer with just one of these options? active, inactive

# example entries with known answers
compound | cat
O=C1c2ccccc2C(=O)C1C(=O)C(c1ccccc1)c1ccc(Cl)cc1 (centres undefined) | active
CC(C)(C)c1ccccc1O | active

Query: Dear colleague, could you share the recorded outcome for Nc1ncn[nH]1 when you have a moment?
Reply: inactive

Query: Dear colleague, could you share the recorded outcome for O=C(NC(=O)c1c(F)cccc1F)Nc1ccc(Cl)cc1 when you have a moment?
Reply: inactive

---

# Read-out: Human Leukocyte Antigen - DR isotype (HLADR), HLA-DRA (gene 3122)
# runDescription: BSK_3C_HLADR: BioMAP Diversity Plus: 3C Assay for Human Leukocyte Antigen - DR isotype (HLADR) Biomarker Activity (AID 2283019)
# reportedConditions: primary human endothelial cells (HUVEC); actives raise or lower the signal
Calls of active or inactive are those of the source. How the source made its calls: active means hit-call score of the fitted dose curve at least 0.9, where 1 is the maximum; inactive means score below 0.9.
Can you answer with just one of these options? label 1 = active, label 0 = inactive

# example entries with known answers
compound | cat
O=C(N[C@H]1CN2CCC1CC2)c1ccc2c(c1)OCCO2 | label 0
CCCCCCCCCCCCN(C)C | label 0
O=c1oc2ccccc2c(O)c1C(CC(O)c1ccc(-c2ccc(Br)cc2)cc1)c1ccccc1 (stereo not given) | label 1
CC(C)(C)c1ccccc1O | label 0

Query: Dear colleague, could you share the recorded outcome for Cc1cc(Cl)ccc1OC(C)C(=O)O (stereo not given) when you have a moment?
Reply: label 0

Query: Dear colleague, could you share the recorded outcome for O=C(CCl)NCO when you have a moment?
Reply: label 0

Query: Dear colleague, could you share the recorded outcome for CC(C)O.CC(C)O.OCCN(CCO)CCO.OCCN(CCO)CCO.[Ti] when you have a moment?
Reply: label 0

Query: Dear colleague, could you share the recorded outcome for Cc1cccc(OP(=O)(Oc2cccc(C)c2)Oc2cccc(C)c2)c1 when you have a moment?
Reply: label 0

---

# experimentalTarget: Peroxisome proliferator-activated receptor gamma (Homo sapiens) (UniProt P37231)
# Sequence (P37231 whole entry, looked up): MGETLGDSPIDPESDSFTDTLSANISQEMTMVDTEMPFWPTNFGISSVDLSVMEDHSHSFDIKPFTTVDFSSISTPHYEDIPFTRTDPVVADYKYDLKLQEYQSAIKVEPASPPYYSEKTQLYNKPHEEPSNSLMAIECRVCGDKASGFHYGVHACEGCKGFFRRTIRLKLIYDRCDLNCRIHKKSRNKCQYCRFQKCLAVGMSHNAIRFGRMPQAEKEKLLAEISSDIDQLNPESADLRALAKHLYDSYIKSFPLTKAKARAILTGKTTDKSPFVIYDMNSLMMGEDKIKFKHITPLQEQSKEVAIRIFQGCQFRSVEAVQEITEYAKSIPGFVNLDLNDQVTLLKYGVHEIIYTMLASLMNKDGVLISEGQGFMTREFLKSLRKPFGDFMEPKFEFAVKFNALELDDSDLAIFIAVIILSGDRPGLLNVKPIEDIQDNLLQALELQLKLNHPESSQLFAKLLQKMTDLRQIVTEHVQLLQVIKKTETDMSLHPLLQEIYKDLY
# runDescription: OT_PPARg_PPARgSRC1_1440: Odyssey Thera (OT) 24-hour Protein-Complementation Assay for Peroxisome Proliferator-activated Receptor Gamma/ SRC-1 Co-activator (AID 2283388);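 note: nuclear to cytoplasmic ratio of reconstituted Venus YFP fluorescence in fixed imaged cells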
Active and inactive are the calls of the source. Rule for the calls: active = hit-call score of the fitted dose curve at least 0.9, where 1 is the maximum; inconclusive = response in the unintended direction; inactive = score below 0.9.
Can you answer with just one of these options? active, inactive

# example entries with known answers
compound | cat
Cc1cc(Cl)ccc1OCCCC(=O)O | inactive
Cc1cc(Cl)ccc1O | inactive

Query: Dear colleague, could you share the recorded outcome for O=C1c2ccccc2C(=O)C1C(=O)C(c1ccccc1)c1ccc(Cl)cc1 (stereo not given) when you have a moment?
Reply: active

Query: Dear colleague, could you share the recorded outcome for COC(=O)Nc1cccc(OC(=O)Nc2cccc(C)c2)c1 when you have a moment?
Reply: inactive

Query: Dear colleague, could you share the recorded outcome for O=[N+]([O-])c1ccc(Cl)c([N+](=O)[O-])c1 when you have a moment?
Reply: inactive

Query: Dear colleague, could you share the recorded outcome for CC(C)N(C(=O)CCl)c1ccccc1 when you have a moment?
Reply: inactive

Query: Dear colleague, could you share the recorded outcome for O=C(NC(=O)c1c(F)cccc1F)Nc1cc(Cl)c(OC(F)(F)C(F)C(F)(F)F)cc1Cl (stereo not given) when you have a moment?
Reply: inactive

---

# experimentalTarget: Cellular tumor antigen p53 (Homo sapiens)
# runDescription: TOX21_p53_BLA_p4_ratio: Tox21 HCT-116 p53 Agonism Beta-lactamase Assay, Ratio, Phase 4 (AID 2283601)
Results filed as inconclusive are left out. Active and inactive are the calls of the source. How the source made its calls: active means hit-call score of the fitted dose curve at least 0.9, where 1 is the maximum; inconclusive means response in the unintended direction; inactive means score below 0.9.
Can you answer with just one of these options? True for active, False for inactive

molecule | cat
c1csc(-c2ccc(-c3cccs3)s2)c1 | True
CCCCC(CC)C(=O)Cl (configuration not stated) | False
Cc1cc(Cl)ccc1OC(C)C(=O)O (configuration not stated) | False
Cc1c([N+](=O)[O-])c(C)c([N+](=O)[O-])c(C(C)(C)C)c1[N+](=O)[O-] | False
C#CCO | False

Query: Dear colleague, could you share the recorded outcome for O=S1OC[C@@H]2[C@H](CO1)[C@]1(Cl)C(Cl)=C(Cl)[C@@]2(Cl)C1(Cl)Cl (some centres not stated) when you have a moment?
Reply: False

Query: Dear colleague, could you share the recorded outcome for O=C(O)c1cc(I)cc(I)c1I when you have a moment?
Reply: False

Query: Dear colleague, could you share the recorded outcome for O=S1(=O)OC(c2cc(Br)c(O)c(Br)c2)(c2cc(Br)c(O)c(Br)c2)c2ccccc21 when you have a moment?
Reply: False

Query: Dear colleague, could you share the recorded outcome for CC(C)(C)c1cc([N+](=O)[O-])cc(C(C)(C)C)c1O when you have a moment?
Reply: True

Query: Dear colleague, could you share the recorded outcome for O=C(CBr)c1ccc(O)cc1 when you have a moment?
Reply: False

Query: Dear colleague, could you share the recorded outcome for CCOP(=O)(OCC)OC(=CCl)c1ccc(Cl)cc1Cl when you have a moment?
Reply: False

Query: Dear colleague, could you share the recorded outcome for CCOC(=O)CCN(SN(C)C(=O)Oc1cccc2c1OC(C)(C)C2)C(C)C when you have a moment?
Reply: False

Query: Dear colleague, could you share the recorded outcome for C=C(C)C(=O)OCC(CC)CCCC (configuration not stated) when you have a moment?
Reply: False

Query: Dear colleague, could you share the recorded outcome for CCN(N=O)C(N)=O when you have a moment?
Reply: False

---

# runDescription: ATG_EGR_CIS: Attagene CIS-FACTORIAL HepG2 Assay for human Early Growth Response 1 (EGR1) (AID 2282938)
# reportedConditions: HepG2 Attagene CIS-FACTORIAL EGR reporter mRNA; actives raise or lower the signal
Activity calls are given as the source filed them. Rule for the calls: active = hit-call score of the fitted dose curve at least 0.9, where 1 is the maximum; inactive = score below 0.9.
Can you answer with just one of these options? active, inactive

# example entries with known answers
compound | cat
O=NN1CCOCC1 | inactive
Nc1c(Oc2ccccc2)cc(O)c2c1C(=O)c1ccccc1C2=O | inactive
CN(C)C(=S)S | inactive

Query: Dear colleague, could you share the recorded outcome for N#Cc1ccncc1 when you have a moment?
Reply: inactive

Query: Dear colleague, could you share the recorded outcome for Cl[C@H]1OCCO[C@@H]1Cl when you have a moment?
Reply: inactive

Query: Dear colleague, could you share the recorded outcome for CCOc1cc(C=O)ccc1O when you have a moment?
Reply: inactive

---

# Read-out: Interleukin-1 alpha (IL1a), IL1A (gene 3552)
# runDescription: BSK_LPS_IL1a: BioMAP Diversity Plus: LPS Assay for Interleukin-1 alpha (IL1a) Biomarker Activity (AID 2283080)
# reportedConditions: primary human HUVEC with PBMC; actives raise or lower the signal
The source made the active and inactive calls. Rule for the calls: active = hit-call score of the fitted dose curve at least 0.9, where 1 is the maximum; inactive = score below 0.9.
Can you answer with just one of these options? active, inactive

compound | cat
CCN(CC)C(=O)C(Cl)=C(C)OP(=O)(OC)OC | inactive
CC(C)=CC1C(C(=O)OCc2cccc(Oc3ccccc3)c2)C1(C)C (stereo not drawn) | inactive
CN(C)C(=S)S | inactive
CCOP(=O)(OCC)SCCSCC | inactive
CC(C)(COCC1CO1)COCC1CO1 (stereo not drawn) | inactive
CCCCCCCCCCCCc1cccc(S(=O)(=O)O)c1 | inactive

Query: Dear colleague, could you share the recorded outcome for O=S(=O)(C(Cl)(Cl)Cl)C(Cl)(Cl)Cl when you have a moment?
Reply: active

Query: Dear colleague, could you share the recorded outcome for Cc1cc(Cl)ccc1OC(C)C(=O)O (stereo not drawn) when you have a moment?
Reply: inactive

Query: Dear colleague, could you share the recorded outcome for O=C1C=CC(=O)c2ccccc21 when you have a moment?
Reply: active

Query: Dear colleague, could you share the recorded outcome for N#Cc1cccnc1 when you have a moment?
Reply: inactive

Query: Dear colleague, could you share the recorded outcome for Oc1cccc(-c2ccccc2)c1 when you have a moment?
Reply: inactive

Query: Dear colleague, could you share the recorded outcome for Oc1ccc(Cc2ccc(O)cc2)cc1 when you have a moment?
Reply: inactive

Query: Dear colleague, could you share the recorded outcome for Nc1c(Oc2ccccc2)cc(O)c2c1C(=O)c1ccccc1C2=O when you have a moment?
Reply: inactive

Query: Dear colleague, could you share the recorded outcome for CC(C)O.CC(C)O.OCCN(CCO)CCO.OCCN(CCO)CCO.[Ti] when you have a moment?
Reply: inactive

Query: Dear colleague, could you share the recorded outcome for C#CCOC(=O)/C=C(C)/C=C/CC(C)CCCC(C)C (stereo not drawn) when you have a moment?
Reply: inactive

Query: Dear colleague, could you share the recorded outcome for OCCN(CCO)CCO when you have a moment?
Reply: inactive

Query: Dear colleague, could you share the recorded outcome for O=c1oc2ccccc2c(O)c1C(CC(O)c1ccc(-c2ccc(Br)cc2)cc1)c1ccccc1 (stereo not drawn) when you have a moment?
Reply: inactive

Query: Dear colleague, could you share the recorded outcome for Cc1cc(C(C)(C)c2ccc(O)c(C)c2)ccc1O when you have a moment?
Reply: inactive

---

# Read-out: Low-density lipoprotein receptor (LDLR), LDLR (gene 3949)
# runDescription: BSK_CASM3C_LDLR: BioMAP Diversity Plus: CASM3C Assay for Low-density lipoprotein receptor (LDLR) Biomarker Activity (AID 2283045);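 note: LDLR protein level on the cell surface quantified by ELISA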
# reportedConditions: primary human coronary artery smooth muscle cells; actives raise or lower the signal
Calls of active or inactive are those of the source. Rule for the calls: active = hit-call score of the fitted dose curve at least 0.9, where 1 is the maximum; inactive = score below 0.9.
Can you answer with just one of these options? label 1 for active, label 0 for inactive

# example entries with known answers
molecule | cat
O=[N+]([O-])c1ccc(Nc2ccccc2)cc1 | label 0
[Cl][Sn]([c]1ccccc1)([c]1ccccc1)[c]1ccccc1 | label 1

Now for a further molecule.
Query: Dear colleague, could you share the recorded outcome for COCC(=O)N(c1c(C)cccc1C)[C@H](C)C(=O)OC when you have a moment?
Reply: label 0

Data provenance: PubChem BioAssay (EPA / NIEHS)
